Data provenance: patent US20250011448A1

Listing of entries alongside the reported kon.
Biological target: T1, cynomolgus monkey TNFR2 extracellular domain with C-terminal 10×His tag (cynomolgus monkey, UniProt P20333 23-257 (human entry))
T1 construct: also called cynoTNFR2-His; His-tag-cynoTNFR2
T1 chain: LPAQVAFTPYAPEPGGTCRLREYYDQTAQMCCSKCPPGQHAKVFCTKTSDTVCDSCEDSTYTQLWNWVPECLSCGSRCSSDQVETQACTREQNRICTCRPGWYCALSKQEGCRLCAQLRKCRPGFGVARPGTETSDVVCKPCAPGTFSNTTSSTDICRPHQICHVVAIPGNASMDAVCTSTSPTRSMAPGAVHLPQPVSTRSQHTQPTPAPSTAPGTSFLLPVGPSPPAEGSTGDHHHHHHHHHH
Experiment: BLI (Octet RED96), antibody captured on AHC biosensor, His-tagged TNFR2 in solution, 1:1 model
Kindly answer with a numeric value in M⁻¹ s⁻¹, unit omitted.

Use the examples below as a reference point.
51B5 chimeric anti-TNFR2 antibody (antibody, V domains shown, Chimeric: mouse variable domains with human constant regions, made as recombinant IgG1) VH: QVQLQQSGAELARPGTSVKLSCKASGYTFTDDYIDWVKQRTGQGLEWIGEIYPGSGNTYYNEKFKGKATLTADKSSSTAYMQLSSLTSEDSAVYFCARSQVYGKIAMDHWGQGTSVTVSS VL: DIVLTQSPASLAVSLGQRATISCRASESVDNSGNSFMHWYQQIPGQPPKLLIYRASNLESGIPARFSGSGARTDFTLTIDPVGAVDVATYYCQQSKEDPYTFGGGTKLEIE = 967000
29G3 chimeric anti-TNFR2 antibody (antibody, V domains shown, Chimeric: mouse variable domains with human constant regions, made as recombinant IgG1) VH: EVMLVESGGASVKPGGSLKLSCAASGFTFSNFAMSWVRQTPEKRLEWVATIRSGDNYSYYSDNVKGRFTISRDNARNTLYLQMSSLRSKDTSIYYCARNWDKVFDYWGQGTTLTVSS VL: DIVLTQSPASLAVSLGQRATISCRASESVDSYGYSFMHWYQQKPGQPPKLLIYRASNLKSGIPARFSGSGSRTDFTLTINPVEADDVATYYCQQSNEDHTFGGGTKLEIK = 1.26e+06
85G8.4 chimeric anti-TNFR2 antibody (antibody, V domains shown, Chimeric: mouse variable domains with human constant regions, made as recombinant IgG1) VH: EVQLQQSGPELVKPGASVKISCKTSGYTFTDFNMDWVKQSHGKSLEWIGYINPNNGDAAYNQKFKSKATLTVDKSSNTAYMELHSLTSDDSAVYYCARWGWAFAYWGQGTLVTVSA VL: DIVMTQSHKIMSTSVGDRVSITCKASQDVKTAVAWYQQKPGQSPKLLIYATSYRYTGVPDRFTGSGSGTDFTFTISTVQAEDLAVYYCQQHYSIPYTFGGGTKLEIK = 412000

Kindly consider the entry below.
Ask: Reported kon for 15H10 chimeric anti-TNFR2 antibody (antibody, V domains shown, Chimeric: mouse variable domains with human constant regions, made as recombinant IgG1) VH: DVQLQESGPGLVTPSQSLSLTCSVTGYSITSGYYWNWIRQFPGNKLEWMGYITYDGNNNYNPSLKSRFSITRDTSKNQFFLKLNSVTSEDTATYYCARGDYGDSAMDYWGQGTSVTVSS VL: EIVLTQSPAITAASLGQKVTITCSASSGVNYMHWYQQKSGTSPKPWIYEISKLASGVPARFSGSGSGTSYSLTISSMEAEDAAIYYCQQWNYPLITFGAGTKVELK : what is it?
Reply: 259000
